# target entity: Heat shock factor protein 1 (Mus musculus, UniProt P38532)
# Sequence (P38532 whole entry): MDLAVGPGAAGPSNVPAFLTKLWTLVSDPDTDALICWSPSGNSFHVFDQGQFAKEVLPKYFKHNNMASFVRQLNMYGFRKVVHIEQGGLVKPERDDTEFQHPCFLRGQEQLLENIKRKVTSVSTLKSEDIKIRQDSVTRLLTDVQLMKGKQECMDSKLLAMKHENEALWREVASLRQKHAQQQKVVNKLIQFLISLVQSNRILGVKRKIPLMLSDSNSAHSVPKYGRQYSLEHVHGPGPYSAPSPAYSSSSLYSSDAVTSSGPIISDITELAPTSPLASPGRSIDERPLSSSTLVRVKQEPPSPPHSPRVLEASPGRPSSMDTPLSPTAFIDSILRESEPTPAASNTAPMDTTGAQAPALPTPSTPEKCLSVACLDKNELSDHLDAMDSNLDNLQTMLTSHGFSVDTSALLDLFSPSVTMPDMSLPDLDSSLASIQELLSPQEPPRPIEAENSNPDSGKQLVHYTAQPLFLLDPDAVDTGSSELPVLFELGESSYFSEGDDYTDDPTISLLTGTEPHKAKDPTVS
# experimental details: inhibition of MG132-induced HSE-luciferase signal, confirmation, cell-based, NIH3T3, luminescence, dose retest (AID 2382);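 note: NIH3T3 fibroblasts with HSF1-driven luciferase reporter stressed by proteasome inhibitor MG132; luminescence from HSF1-driven luciferase expression after 8 hours of MG132 stress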
# Format: functional
Active and inactive are the calls of the source.
The following compounds are listed with their measured EC50 values.

// below: answered compounds
| compound | readout type | reported |
| --- | --- | --- |
| COc1cc2cc(C(=O)Nc3ccc4c(c3)OCCO4)[nH]c2cc1OC | EC50 | 0.907 µM (active) |
| CCn1cc(S(=O)(=O)Nc2ccc3c(c2)OCCO3)cn1 | EC50 | 1.86 µM (active) |

Hello, I am looking for reported EC50 with Heat shock factor protein 1 (Mus musculus, UniProt P38532) for `c1ccn(-c2ccc(N3CCOCC3)cc2)c1` . Could you help?
> 195 µM (not active)

Query COc1cccc(CN(C)CC2CCCN(CCc3ccc(Cl)cc3)C2)c1OC (stereo unspecified) next
> 195 µM (not active)

Query Cn1c(=N)n(CC(O)c2ccccc2)c2ccccc21 (stereo unspecified) next
> 195 µM (not active)

Query `C/C(=N\NC(=O)c1c(C)nc2ccccn12)c1ccc(C(C)(C)C)cc1` next
> 195 µM (not active)

Query `CCOc1ccc(CCNC(=O)c2nn(C)c3c2CS(=O)(=O)c2ccccc2-3)cc1` next
> 195 µM (not active)

Query `O=C(CCl)N(c1ccc(Cl)cc1)c1c[nH]c2ccccc12` next
2.72 µM (active)

Query `SC1=Nc2ccccc2C1` next
0.79 µM (active)

Query CCC(=O)N1CCc2cc(S(=O)(=O)NC(C(=O)NCc3ccc(C)cc3)C(C)C)ccc21 (stereo unspecified) next
> 195 µM (not active)

Query CCc1ccc(NC(=O)C2CCC(CNC(=O)[C@@H]3Cc4ccccc4CN3)CC2)cc1 (stereo partly specified) next
> 195 µM (not active)

----------
# target entity: UniProt P41145
# Sequence (P41145 whole entry): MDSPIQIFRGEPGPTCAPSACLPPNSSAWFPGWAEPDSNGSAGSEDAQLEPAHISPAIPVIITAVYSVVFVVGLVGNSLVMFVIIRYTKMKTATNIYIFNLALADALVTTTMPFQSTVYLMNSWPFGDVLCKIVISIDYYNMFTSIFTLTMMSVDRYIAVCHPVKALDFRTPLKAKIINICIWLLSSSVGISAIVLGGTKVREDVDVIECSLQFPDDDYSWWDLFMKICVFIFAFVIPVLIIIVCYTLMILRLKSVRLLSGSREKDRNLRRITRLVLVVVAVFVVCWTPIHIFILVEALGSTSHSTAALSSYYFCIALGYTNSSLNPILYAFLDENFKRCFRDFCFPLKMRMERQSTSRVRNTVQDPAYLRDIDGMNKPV
# Format: functional
readout type: EC50 (µM)
Record the value in µM, omitting the unit from your answer.

I would be grateful if you could share the reported EC50 for `COc1cc2ccccc2cc1C(=O)Nc1sc2c(c1C(N)=O)CCN(C(C)C)C2` .
14.8

----------
# target entity: Trace amine-associated receptor 1 (Homo sapiens, UniProt Q96RJ0);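 note: inhibition of calcium response to PEA at EC80 in Galpha16 coupled cells measured by Fluo-8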
# Sequence (Q96RJ0 whole entry): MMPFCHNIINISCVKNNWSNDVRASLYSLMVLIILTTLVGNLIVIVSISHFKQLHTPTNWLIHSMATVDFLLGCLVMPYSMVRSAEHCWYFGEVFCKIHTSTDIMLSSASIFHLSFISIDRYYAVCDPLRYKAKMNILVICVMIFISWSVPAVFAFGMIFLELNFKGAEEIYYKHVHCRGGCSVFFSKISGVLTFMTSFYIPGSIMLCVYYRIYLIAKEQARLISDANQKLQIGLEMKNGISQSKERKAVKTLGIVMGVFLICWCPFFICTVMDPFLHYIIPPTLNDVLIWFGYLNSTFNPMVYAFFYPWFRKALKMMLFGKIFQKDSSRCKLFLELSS
# experimental details: Counterscreen for agonists of the human trace amine associated receptor 1 (hTAAR1): Fluorescence-based cell-based high throughput dose response assay to identify hTAAR1 agonist that also desensitize TAAR1 receptor response.
# Format: functional
Counter-ions that a name gives are not always drawn. Active and inactive are the calls of the source.
API: response.call in active, inactive

Below, 3 molecules whose answers are already recorded.
| molecule | target entity | qualitative label |
| --- | --- | --- |
| O=C(NCCc1ccccc1)c1ccc([N+](=O)[O-])cc1 | Trace amine-associated receptor 1 (Homo sapiens, UniProt Q96RJ0) | active |
| COc1cc(C(c2nnnn2C2CCCC2)N2CCc3ccccc3C2)ccc1O (centres undefined) | Trace amine-associated receptor 1 (Homo sapiens, UniProt Q96RJ0) | active |
| Cc1ccc(-c2nc(CS(=O)(=O)CC(=O)N3CCc4ccccc4C3)c(C)o2)cc1 | Trace amine-associated receptor 1 (Homo sapiens, UniProt Q96RJ0) | active |

Could you now look at the following molecule, please?
Answer briefly: the call reported for c1ccc(CN(CC2=NCCN2)c2ccccc2)cc1 [ANTAZOLINE HYDROCHLORIDE] in this assay.
inactive

----------
# target entity: UniProt:P9WMR3
# Sequence (P9WMR3 whole entry): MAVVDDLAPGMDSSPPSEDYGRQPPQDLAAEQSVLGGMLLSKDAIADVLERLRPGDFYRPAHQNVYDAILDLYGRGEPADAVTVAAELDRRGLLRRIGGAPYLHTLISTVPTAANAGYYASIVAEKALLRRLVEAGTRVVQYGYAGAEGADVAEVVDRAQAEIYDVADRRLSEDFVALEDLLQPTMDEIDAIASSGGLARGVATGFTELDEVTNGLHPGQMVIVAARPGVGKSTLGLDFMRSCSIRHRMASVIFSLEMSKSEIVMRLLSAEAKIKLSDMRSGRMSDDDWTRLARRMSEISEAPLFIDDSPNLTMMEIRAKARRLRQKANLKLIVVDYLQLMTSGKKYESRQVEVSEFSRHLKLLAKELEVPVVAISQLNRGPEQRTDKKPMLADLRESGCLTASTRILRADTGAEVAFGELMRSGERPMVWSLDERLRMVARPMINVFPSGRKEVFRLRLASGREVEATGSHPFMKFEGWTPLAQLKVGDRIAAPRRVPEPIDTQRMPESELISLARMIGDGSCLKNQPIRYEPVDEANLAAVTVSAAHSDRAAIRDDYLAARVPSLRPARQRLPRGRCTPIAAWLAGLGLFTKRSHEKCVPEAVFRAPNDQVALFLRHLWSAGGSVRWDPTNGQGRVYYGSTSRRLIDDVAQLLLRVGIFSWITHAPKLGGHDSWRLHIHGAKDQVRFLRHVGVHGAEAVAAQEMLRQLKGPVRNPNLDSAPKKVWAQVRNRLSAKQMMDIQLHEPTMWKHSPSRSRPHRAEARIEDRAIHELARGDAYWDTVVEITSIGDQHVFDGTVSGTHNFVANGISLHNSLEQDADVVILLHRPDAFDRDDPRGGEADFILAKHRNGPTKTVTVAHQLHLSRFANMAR
# experimental details: DnaB intein splicing inhibitors, dose response, biochemical, cell-free fluorescence (AID 449749)
# Assay type: functional
Calls of active or inactive are those of the source.
API: response.call in class 1 for active, class 0 for inactive

Below, 8 compounds whose answers are already recorded.
| input smiles | qualitative label |
| --- | --- |
| COC(=O)c1ccc(-n2c(C)cc(C(=O)CCl)c2C)cc1 | class 1 |
| COc1cc(C(c2c(C)n[nH]c2O)c2c(C)n[nH]c2O)cc(OC)c1OC | class 1 |
| Oc1nc2ccc(Cl)cc2c(-c2ccccc2)c1SC(=S)N1CCCCC1 | class 0 |
| Cc1ccccc1CS(=O)(=O)c1nnc([C@H](Cc2ccccc2)NC(=O)OC(C)(C)C)o1 | class 1 |
| CC(=O)N1CCC2(CC1)C(C#N)=C(N)Oc1[nH]nc(CSc3ccc(C)cc3)c12 | class 1 |
| Cn1nc(-c2ccc(Cl)cc2)nc2c(=O)n(C)c(=O)nc1-2 | class 1 |
| COC(=O)c1c(NC(=O)/C=C/C(=O)O)sc(Cc2ccccc2)c1C | class 1 |
| Nc1cccc2c(O)cccc12 | class 1 |

Answer briefly: the call reported for `O=[N+]([O-])c1cccc(/N=C/C2=C(O)c3ccccc3CC2)c1` in this assay.
class 0

Query `O=C(CCl)N(c1ccc(Cl)cc1)c1c[nH]c2ccccc12` next
class 1

Query `CC(C)=CCC/C(C)=C/Cc1c(O)ccc(C(=O)/C=C/c2ccc(O)cc2)c1O` next
class 1

Query `CCCc1c(C(=O)NNc2cccc(Cl)c2)cnn1-c1ccccc1` next
class 1

Query `CN(C(=O)c1cccc(COc2ccc(Cl)cc2Cl)c1)c1ccccc1` next
class 1

Query `Cc1nn(CCc2nn[nH]n2)c2nc(-c3ccc(C4CCCCC4)cc3)cc(C(F)(F)F)c12` next
class 1

Query `SC1=Nc2ccccc2C1` next
class 1

----------
The following molecules are listed with their measured EC50 values.
# target entity: UniProt:P0AE70
# Sequence (P0AE70 whole entry): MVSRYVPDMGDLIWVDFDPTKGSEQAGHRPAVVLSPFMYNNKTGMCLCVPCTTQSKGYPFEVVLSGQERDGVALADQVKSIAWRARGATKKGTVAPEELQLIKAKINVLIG
# experimental details: fluorescent RNA oligo signal without MazF, dose response, counter-screen for MazEF activator project, biochemical, fluorescence, single-stranded RNase substrate (AID 588502)
# Type: functional
Calls of active or inactive are those of the source.

I would be grateful if you could share the reported EC50 for `N#C/C(=C\c1ccc([N+](=O)[O-])cc1)c1nc(C2CC2)cs1` .
> 99 µM (inactive)

Query `N#C/C(=C\C1=C(N2CCOCC2)C(=C/c2cccc([N+](=O)[O-])c2)/CC1)C(=O)Nc1ccccc1F` next
> 99 µM (inactive)

Query `CCOC(=O)c1c(/N=C/C2C(=O)NC(=O)NC2=O)sc2c1CCC2` next
> 99 µM (inactive)

Query `CN(/N=C/c1ccc(N(C)C)cc1)C1=NS(=O)(=O)c2ccccc21` next
> 99 µM (inactive)

Query `COc1ccc(C(=O)N/N=C\c2coc3ccc(C)cc3c2=O)cc1` next
> 99 µM (inactive)

----------
The following molecules are listed with their measured IC50 values.
# target entity: UniProt:Q9GZV3
# Sequence (Q9GZV3 whole entry): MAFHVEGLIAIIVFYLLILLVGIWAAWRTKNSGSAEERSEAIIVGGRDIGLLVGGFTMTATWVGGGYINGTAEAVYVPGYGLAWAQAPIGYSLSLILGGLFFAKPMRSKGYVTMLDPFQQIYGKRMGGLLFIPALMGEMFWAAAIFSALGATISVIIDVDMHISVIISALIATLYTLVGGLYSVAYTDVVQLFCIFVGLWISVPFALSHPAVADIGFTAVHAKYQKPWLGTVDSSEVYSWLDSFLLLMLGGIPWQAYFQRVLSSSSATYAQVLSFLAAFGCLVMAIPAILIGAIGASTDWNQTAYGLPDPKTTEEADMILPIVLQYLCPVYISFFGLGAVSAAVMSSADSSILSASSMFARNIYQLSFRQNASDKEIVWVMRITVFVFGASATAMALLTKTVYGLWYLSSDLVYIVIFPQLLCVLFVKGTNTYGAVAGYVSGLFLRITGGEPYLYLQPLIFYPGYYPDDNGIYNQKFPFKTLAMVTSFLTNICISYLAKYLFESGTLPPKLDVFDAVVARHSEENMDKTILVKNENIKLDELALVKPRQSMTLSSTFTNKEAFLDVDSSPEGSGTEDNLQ
# experimental details: CHT inhibitors, dose response, cell-based, 5-point CRC, membrane potential dye (AID 504840)
# Format: functional
Activity calls are given as the source filed them.

I would be grateful if you could share the reported IC50 for `COCCn1c(CN2CCN(c3cccc(Cl)c3)CC2)nc2c1c(=O)n(C)c(=O)n2C` .
12.3 µM (active)

----------
# target entity: Nuclear receptor subfamily 0 group B member 1 (Homo sapiens);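 note: HEK293T cells transfected with SF-1 and DAX-1 plus StAR promoter luciferase reporter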
# Sequence (P51843 whole entry): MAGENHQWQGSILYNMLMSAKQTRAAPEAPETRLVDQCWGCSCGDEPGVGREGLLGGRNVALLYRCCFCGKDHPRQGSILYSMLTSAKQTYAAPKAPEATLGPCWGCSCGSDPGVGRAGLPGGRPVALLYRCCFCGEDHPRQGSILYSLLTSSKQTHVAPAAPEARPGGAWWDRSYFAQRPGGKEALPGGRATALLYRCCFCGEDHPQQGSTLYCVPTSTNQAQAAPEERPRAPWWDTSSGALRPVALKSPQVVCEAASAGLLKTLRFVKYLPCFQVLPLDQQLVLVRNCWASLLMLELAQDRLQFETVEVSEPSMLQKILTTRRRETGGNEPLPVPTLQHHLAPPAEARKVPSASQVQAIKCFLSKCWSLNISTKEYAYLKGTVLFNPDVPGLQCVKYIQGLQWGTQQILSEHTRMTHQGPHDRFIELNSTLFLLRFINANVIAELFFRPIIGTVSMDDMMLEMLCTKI
# Assay type: functional, cell-based
Activity calls are given as the source filed them.
readout type: IC50

// below: answered molecules
| input smiles | IC50 |
| --- | --- |
| Cc1nc2sc(-c3ccccc3)cc2c(=O)n1N | > 67.6 µM (inactive) |
| NC(=O)C1CCN(C(=O)c2cc3c(s2)CCCC3)CC1 | > 67.6 µM (inactive) |
| COc1ccc2oc(C(=O)NCCc3ccccc3)c(C)c2c1 | > 67.5 µM (inactive) |
| CCOc1cccc(/C=C/c2ccc3ccccc3n2)c1OC(C)=O | > 67.5 µM (inactive) |
| C(=N\Nc1ccc2ccccc2n1)/c1ccc2c(c1)OCO2 | > 0.278 µM (active) |

Would you kindly look at the next entry?
I would be grateful if you could share the reported IC50 for `O=C(COc1ccc2ccccc2c1Br)Nc1cccnc1` .
> 67.5 µM (inactive)
